Listed next: entries and their corresponding TGI.
# Test system: UACC-257 melanoma
# test name: NCI tumour cell line growth inhibition, 48 h

Examples with their reported TGI follow.
| molecule | TGI |
| --- | --- |
| CC1(C)C(c2ccccc2)=[N+]([O-])C(C)(C)N1O | > 10 µM |
| CCOC(=O)C1=C(C(C)=O)CSC(c2ccccc2)=N1 | > 100 µM |
| NC(=S)N/N=C(/CC(=O)c1ccccc1)C(=O)Nc1ccc(Cl)c(Cl)c1 | > 100 µM |
| Nc1nn2c(C(Br)Br)cc(C(Br)Br)nc2c1[N+](=O)[O-] | 3.11 µM |
| CCSC1=CC(=O)c2nc3ccccc3c3ccnc1c23 | 4.19 µM |
| COC(=O)NN(C(=O)OC)c1c(-c2ccccc2)nc(SC)n1N | > 100 µM |

Below: the item to evaluate.
Endpoint output: TGI of CCC12C[N+]3([O-])CCc4c([nH]c5ccccc45)C(C(=O)OC)(c4cc5c(cc4OC)N(C)C4C(O)(C(=O)OC)C(OC(C)=O)C6(CC)C=CCN7CCC54C76)CC(C3)C1O2 (stereo unspecified) . Value? 35.1 µM

---

# Test system: HCT-15 colon
# test name: NCI tumour cell line growth inhibition, 48 h
Listed next: entries and their corresponding TGI.

| compound | TGI |
| --- | --- |
| O=C(c1ccc(F)cc1)c1cccc(C(=O)c2ccc(F)cc2)n1 | > 100 µM |
| O=C1CCSSCCC(=O)NCCN1 | > 100 µM |
| CCCCOC(C)(C)/C=C/C(O)[C@](C)(O)[C@H]1[C@H](O)C[C@@]2(C)[C@@H]3CCc4c(cc(OC5OC(CO)C(O)C(O)C5O)c(O)c4C)C3(C)C(=O)C[C@]12C (stereo not given in full) | > 100 µM |

Endpoint output: TGI of CN(C)c1ccc(-c2c(C#N)c(S)n(NS(=O)(=O)c3ccccc3)c(=O)c2C#N)cc1 . Value? 57.7 µM

Endpoint output: TGI of Cc1[c-]onc1C.Cc1[c-]onc1C.[Ag].[Ag].[NH-]S(=O)(=O)c1ccc(N=Nc2cc(N=Nc3ccc(S([NH-])(=O)=O)cc3)c3c(NC(=O)C(Cl)Cl)cccc3c2OC(=O)C(Cl)Cl)cc1 . Value? 32.1 µM

Endpoint output: TGI of CC1SC(c2c(Cl)cccc2Cl)N(NC(=O)c2[nH]c3ccc(F)cc3c2-c2ccccc2)C1=O (stereo not given) . Value? 22.2 µM

Endpoint output: TGI of COC(=O)CCC(NC(=S)N/N=C(\C)c1nccs1)C(=O)OC (stereo not given) . Value? > 100 µM

Endpoint output: TGI of COc1cc(OCc2ccc3oc(=O)c(-c4ccccc4)nc3c2)cc(OC)c1OC . Value? > 100 µM

---

# Test system: ACHN renal
# test name: NCI tumour cell line growth inhibition, 48 h; in the data active = GI50 below about 0.43 µM; inactive = the rest
Outcome (select one): TRUE = active, FALSE = inactive

# example entries with known answers
| molecule | qualitative label |
| --- | --- |
| Nc1c(C(=O)Nc2cccc([N+](=O)[O-])c2)sc2nc3c(cc12)C(O)CCC3 (stereo not given) | FALSE |
| COc1ccc(N2C(C)=C(C#N)C34C(=O)N(c5ccccc5)C(=O)C3=C(O)C=CC24O)cc1 (stereo not given) | FALSE |
| COC(=O)[C@H](Cc1cn(C)cn1)NC(=O)[C@H](Cc1c[nH]c2ccccc12)NC(=O)Nc1cc(C(F)(F)F)cc(C(F)(F)F)c1 | FALSE |
| CC/C=C\C=C/C(=O)N/C=C/CC1Cc2cccc(O)c2C(=O)O1 (stereo not given) | FALSE |
| Cc1ccncc1.[O]=[Ge].[O]=[Ge].[O]=[Ge].[O]=[Ge].[O]=[Ge].[O]=[Ge][OH].[O]=[Ge][OH] | FALSE |

Outcome? Cc1sc(C(=O)Nc2cc(C(=O)NCCCN(C)C)n(C)c2)cc1NC(=O)CCCN1C(=O)c2cccc3cccc(c23)C1=O FALSE

Outcome? COc1cc(C2c3cc4c(cc3[C@@H](Nc3ccc(C#N)cc3)C3COC(=O)[C@H]23)OCO4)cc(OC)c1O (stereo not given in full) TRUE

Outcome? Oc1ccc(-c2nnc3sc(-c4ccc(F)cc4)nn23)cc1 FALSE

Outcome? O=C([O-])c1ccccc1Nc1ccccn1.O=C([O-])c1ccccc1Nc1ccccn1.[Ni+2] FALSE

Outcome? C[C@H](Nc1ncnc2nc[nH]c12)c1cc2cccc(Cl)c2c(=O)n1-c1ccccc1 FALSE
